- tested target: Ba/F3-FGFR3-transfected cells (Homo sapiens, UniProt P22607)
- Construct: BAF3-FGFR3 (MIN IL3) pIC50; other: minus IL3
- Sequence (P22607 whole entry, change not shown): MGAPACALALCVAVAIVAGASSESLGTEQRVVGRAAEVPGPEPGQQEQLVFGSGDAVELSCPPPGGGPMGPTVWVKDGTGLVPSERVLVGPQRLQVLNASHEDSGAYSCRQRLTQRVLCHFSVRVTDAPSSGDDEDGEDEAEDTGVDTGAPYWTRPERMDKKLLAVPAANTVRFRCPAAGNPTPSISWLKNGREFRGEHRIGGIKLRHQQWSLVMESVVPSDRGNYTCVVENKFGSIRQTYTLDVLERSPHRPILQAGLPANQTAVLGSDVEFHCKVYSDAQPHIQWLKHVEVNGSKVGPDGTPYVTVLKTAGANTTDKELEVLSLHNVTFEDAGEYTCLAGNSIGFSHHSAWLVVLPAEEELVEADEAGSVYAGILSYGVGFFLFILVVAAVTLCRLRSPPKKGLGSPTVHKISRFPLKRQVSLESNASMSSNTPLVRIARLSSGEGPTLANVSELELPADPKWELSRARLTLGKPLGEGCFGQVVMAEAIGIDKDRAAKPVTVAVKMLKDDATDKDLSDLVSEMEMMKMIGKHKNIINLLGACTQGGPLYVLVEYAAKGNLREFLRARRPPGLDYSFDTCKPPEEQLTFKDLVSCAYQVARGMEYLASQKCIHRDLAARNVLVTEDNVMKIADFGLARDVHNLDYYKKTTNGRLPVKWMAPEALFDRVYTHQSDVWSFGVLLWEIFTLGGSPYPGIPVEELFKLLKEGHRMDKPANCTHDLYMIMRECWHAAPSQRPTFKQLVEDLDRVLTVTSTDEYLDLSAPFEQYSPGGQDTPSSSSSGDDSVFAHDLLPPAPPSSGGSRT
- experimental details: Ba/F3-FGFR3 (minus IL3) cellular proliferation assay, Alamar Blue
- Type: cell-based
- Experimental: Ba/F3-FGFR3 (Minus IL3 or Plus IL3) (Cellular Proliferation Assay) In a 384 well plate, 100 nl of compound dilution in DMSO was sprayed before adding 50 μl cell culture medium (phenol red free RPMI-1640, 10% FBS, 2 mM L-Glutamine and 50 μg/ml Gentamycin) containing 20000 cells per well of Ba/F3-FGFR3-transfected cells. Cells were put in an incubator at 37° C. and 5% CO2. […]
quantity kind: BAF3-FGFR3 (MIN IL3) pIC50

compound=COc1cc(OC)c(F)c(N(Cc2nncn2C)c2ccc3ncc(-c4cnn(C)c4)nc3n2)c1 assay_result=~6.64
compound=COc1cc(OC)cc(N(Cc2c[nH]nn2)c2ccc3ncc(-c4cnn(C)c4)nc3n2)c1 assay_result=~7.6
compound="COc1cc(OC)c(F)c(N(CC2CCC(=O)N2C)c2ccc3ncc(-c4cnn(C)c4)nc3n2)c1 (stereo not drawn) [Compound 159]" assay_result=6.30
compound=COc1cc(OC)c(F)c(N(CCN)c2ccc3ncc(-c4cnn(C)c4)nc3n2)c1 assay_result=6.76
compound=COc1cc(OC)c(F)c(/N=c2\ccc3ncc(-c4cnn(C)c4)nc3n2CCNC(C)C)c1F assay_result=7.6

QUERY: Can you share its BAF3-FGFR3 (MIN IL3) pIC50? I mean this compound: COc1cc(OC)c(F)c(N(Cc2ccn(C)n2)c2ccc3ncc(-c4cnn(C)c4)nc3n2)c1
RESULT: 8.03

QUERY: Can you share its BAF3-FGFR3 (MIN IL3) pIC50? I mean this compound: COCC(O)CN(c1ccc2ncc(-c3cnn(C)c3)nc2n1)c1cc(OC)cc(OC)c1F (single isomer, unassigned) [Compound 58]
RESULT: 7.43

QUERY: Can you share its BAF3-FGFR3 (MIN IL3) pIC50? I mean this compound: COc1cc(OC)cc(N(Cc2nc[nH]n2)c2ccc3ncc(-c4cnn(C)c4)nc3n2)c1
RESULT: 7.71

====

- tested target: FGFR2 (h) (Homo sapiens)
- experimental details: FGFR2 (enzymatic assay), TR-FRET
- Type: biochemical
- details: enzymatic assay; read-out: FGFR 2 pIC50 (converted)
quantity kind: IC50 (nM)
A number alone suffices; assume nM.

Field: example entries. Status: answers known.
compound="COc1cc(/N=c2\\ccc3ncc(-c4cnn(C)c4)nc3n2CC(C)(C)O)cc(OC)c1 [Compound 277]" endpoint_unit=nM assay_result=2.09
compound="COc1cc(OC)cc(N(Cc2nnco2)c2ccc3ncc(-c4cnn(C)c4)nc3n2)c1 [Compound 217]" endpoint_unit=nM assay_result=5.89
compound="COc1cc(OC)c(F)c(N(Cc2noc(C)n2)c2ccc3ncc(-c4cnn(C)c4)nc3n2)c1 [Compound 297]" endpoint_unit=nM assay_result=1.78

Pending compound:
QUERY: Can you share its IC50? I mean this compound: COc1cc(OC)c(F)c(N(CCN2CCCC2=O)c2ccc3ncc(-c4cnn(C)c4)nc3n2)c1 [Compound 157]
RESULT: 6.31

====

Documented IC50 across a set of compounds
- tested target: FGFR2 (h) (Homo sapiens, UniProt P21802)
- Sequence (P21802 22-821): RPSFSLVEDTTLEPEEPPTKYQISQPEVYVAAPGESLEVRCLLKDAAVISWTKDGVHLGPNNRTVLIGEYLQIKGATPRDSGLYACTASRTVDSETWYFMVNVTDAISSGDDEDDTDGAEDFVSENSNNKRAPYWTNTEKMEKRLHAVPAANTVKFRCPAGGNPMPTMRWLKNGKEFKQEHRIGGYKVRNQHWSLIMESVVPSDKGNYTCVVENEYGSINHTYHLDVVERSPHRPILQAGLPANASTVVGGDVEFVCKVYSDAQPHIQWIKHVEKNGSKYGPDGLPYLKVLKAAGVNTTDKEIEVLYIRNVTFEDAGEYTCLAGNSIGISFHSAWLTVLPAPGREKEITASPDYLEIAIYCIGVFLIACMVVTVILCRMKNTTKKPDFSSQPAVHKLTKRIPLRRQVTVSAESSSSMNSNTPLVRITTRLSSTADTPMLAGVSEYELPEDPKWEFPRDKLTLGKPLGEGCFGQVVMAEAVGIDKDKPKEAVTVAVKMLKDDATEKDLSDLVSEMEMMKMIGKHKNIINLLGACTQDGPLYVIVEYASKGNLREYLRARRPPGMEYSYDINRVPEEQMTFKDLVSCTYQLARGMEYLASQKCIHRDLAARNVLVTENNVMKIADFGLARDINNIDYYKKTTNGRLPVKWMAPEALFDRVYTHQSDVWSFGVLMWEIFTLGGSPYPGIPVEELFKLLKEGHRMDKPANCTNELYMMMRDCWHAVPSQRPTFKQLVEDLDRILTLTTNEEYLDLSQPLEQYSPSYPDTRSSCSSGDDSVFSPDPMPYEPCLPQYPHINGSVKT
- experimental details: FGFR2 (enzymatic assay), TR-FRET
- Assay type: biochemical
- details: enzymatic assay; read-out: FGFR 2 pIC50 (converted)
- Protocol: In a final reaction volume of 30 μL, FGFR2 (h) (150 ng/ml) was incubated with 50 mM HEPES pH 7.5, 6 mM MnCl2, 1 mM DTT, 0.1 mM Na3VO4, 0.01% Triton-X-100, 500 nM Btn-Flt3 and 0.4 μM ATP in the presence of compound (1% DMSO final).
A number alone suffices; assume nM.

QUERY: Hi! What's the reported IC50 for COc1cc(OC)c(F)c(N(Cc2nncn2C)c2ccc3ncc(-c4cnn(C)c4)nc3n2)c1 on FGFR2 (h) (Homo sapiens, UniProt P21802)?
RESULT: 3.02

QUERY: Hi! What's the reported IC50 for COc1cc(OC)c(F)c(N(Cc2c[nH]nn2)c2ccc3ncc(-c4cnn(C)c4)nc3n2)c1 on FGFR2 (h) (Homo sapiens, UniProt P21802)?
RESULT: 1.45

QUERY: Hi! What's the reported IC50 for COc1cc(OC)c(F)c(N(Cc2ncc[nH]2)c2ccc3ncc(-c4cn[nH]c4)nc3n2)c1 on FGFR2 (h) (Homo sapiens, UniProt P21802)?
RESULT: 1.29

QUERY: Hi! What's the reported IC50 for COc1cc(OC)c(F)c(N(Cc2ncc[nH]2)c2ccc3ncc(-c4cccnc4)nc3n2)c1 [Compound 190a] on FGFR2 (h) (Homo sapiens, UniProt P21802)?
RESULT: 2.04

QUERY: Hi! What's the reported IC50 for COc1cc(O)c(F)c(N(Cc2ncc[nH]2)c2ccc3ncc(-c4cnn(C)c4)nc3n2)c1 on FGFR2 (h) (Homo sapiens, UniProt P21802)?
RESULT: 1.58

QUERY: Hi! What's the reported IC50 for COc1cc(OC)c(F)c(N(CCS(C)(=O)=O)c2ccc3ncc(-c4cnn(C)c4)nc3n2)c1 on FGFR2 (h) (Homo sapiens, UniProt P21802)?
RESULT: 2.19

QUERY: Hi! What's the reported IC50 for COc1cc(OC)cc(N(Cc2nc(OC)cc(OC)n2)c2ccc3ncc(-c4cnn(C)c4)nc3n2)c1 on FGFR2 (h) (Homo sapiens, UniProt P21802)?
RESULT: 6.92

====

- tested target: Ba/F3-FGFR4-transfected cells (Homo sapiens)
- Sequence (P22455 whole entry, change not shown): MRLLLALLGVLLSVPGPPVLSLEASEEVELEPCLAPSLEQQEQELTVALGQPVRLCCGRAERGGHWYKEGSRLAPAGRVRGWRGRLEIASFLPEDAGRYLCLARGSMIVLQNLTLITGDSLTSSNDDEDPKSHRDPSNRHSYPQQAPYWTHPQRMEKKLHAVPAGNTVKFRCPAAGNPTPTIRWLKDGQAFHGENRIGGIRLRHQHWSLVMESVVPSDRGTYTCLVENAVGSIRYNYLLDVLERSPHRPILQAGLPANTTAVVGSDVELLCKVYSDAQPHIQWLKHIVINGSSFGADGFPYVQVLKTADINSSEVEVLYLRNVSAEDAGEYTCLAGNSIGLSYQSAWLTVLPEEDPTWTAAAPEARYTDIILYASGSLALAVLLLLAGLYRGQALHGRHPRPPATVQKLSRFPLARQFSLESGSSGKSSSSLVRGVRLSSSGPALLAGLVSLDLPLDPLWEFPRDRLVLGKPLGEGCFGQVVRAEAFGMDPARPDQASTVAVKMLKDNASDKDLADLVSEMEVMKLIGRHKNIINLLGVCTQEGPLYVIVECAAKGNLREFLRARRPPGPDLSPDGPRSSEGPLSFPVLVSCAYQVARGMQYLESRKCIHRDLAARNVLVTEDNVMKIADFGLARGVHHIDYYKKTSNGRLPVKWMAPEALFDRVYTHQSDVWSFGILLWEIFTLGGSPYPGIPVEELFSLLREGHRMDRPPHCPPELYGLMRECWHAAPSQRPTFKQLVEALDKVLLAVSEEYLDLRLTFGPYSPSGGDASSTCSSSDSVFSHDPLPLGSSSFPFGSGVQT
- experimental details: Ba/F3-FGFR4 cellular proliferation assay, Alamar Blue
- Assay type: cell-based
- Procedure: Ba/F3-FGFR4 (Cellular Proliferation Assay) In a 384 well plate, 100 n1 of compound dilution in DMSO was sprayed before adding 50 μl cell culture medium (phenol red free RPMI-1640, 10% FBS, 2 mM L-Glutamine and 50 μg/ml Gentamycin) containing 20000 cells per well of Ba/F3-FGFR4-transfected cells. Cells were put in an incubator at 37° C. and 5% CO2. […]
quantity kind: BAF3-FGFR4 pIC50
I only need the number, thanks.

compound=COc1cc(OC)c(F)c(N(Cc2c[nH]cn2)c2ccc3ncc(-c4cnn(C)c4)nc3n2)c1 tested_target="Ba/F3-FGFR4-transfected cells (Homo sapiens)" assay_result=7.47
compound=COc1cc(OC)cc(N(Cc2nnc(N)o2)c2ccc3ncc(-c4cnn(C)c4)nc3n2)c1 tested_target="Ba/F3-FGFR4-transfected cells (Homo sapiens)" assay_result=6.62
compound=COc1cc(OC)cc(N(Cc2ncn(CCO)n2)c2ccc3ncc(-c4cnn(C)c4)nc3n2)c1 tested_target="Ba/F3-FGFR4-transfected cells (Homo sapiens)" assay_result=5.62
compound=COc1cc(/N=c2\ccc3ncc(-c4cnn(C)c4)nc3n2Cc2cc(C)no2)c(F)c(OC)c1 tested_target="Ba/F3-FGFR4-transfected cells (Homo sapiens)" assay_result=8.03
compound=COc1cc(/N=c2\ccc3ncc(-c4cnn(C)c4)nc3n2CC2COC2)c(F)c(OC)c1 tested_target="Ba/F3-FGFR4-transfected cells (Homo sapiens)" assay_result=5.29
compound=COc1cc(/N=c2\ccc3ncc(-c4cnn(C)c4)nc3n2CCN2CCOCC2)cc(OC)c1 tested_target="Ba/F3-FGFR4-transfected cells (Homo sapiens)" assay_result=6.85
compound=CCN(c1ccc2ncc(-c3cnn(C)c3)nc2n1)c1c(F)c(OC)cc(OC)c1F tested_target="Ba/F3-FGFR4-transfected cells (Homo sapiens)" assay_result=7.36
compound=COc1cc(OC)cc(N(CCN2CCCC2=O)c2ccc3ncc(-c4cnn(C)c4)nc3n2)c1 tested_target="Ba/F3-FGFR4-transfected cells (Homo sapiens)" assay_result=5.49

QUERY: Can you share its BAF3-FGFR4 pIC50? I mean this compound: COc1cc(OC)c(F)c(N(Cc2ncco2)c2ccc3ncc(-c4cnn(C)c4)nc3n2)c1
RESULT: 6.79

QUERY: Can you share its BAF3-FGFR4 pIC50? I mean this compound: COc1cc(OC)c(F)c(N(Cc2ncc[nH]2)c2ccc3ncc(-c4cn[nH]c4)nc3n2)c1
RESULT: 8.08

QUERY: Can you share its BAF3-FGFR4 pIC50? I mean this compound: COc1cc(/N=c2\ccc3ncc(-c4cnn(C)c4)nc3n2CC2CCC(=O)N2)c(F)c(OC)c1 (stereo not shown) [Compound 53]
RESULT: 6.85

QUERY: Can you share its BAF3-FGFR4 pIC50? I mean this compound: COc1cc(/N=c2\ccc3ncc(-c4cnn(C)c4)nc3n2CC2CCC(=O)N2)c(F)c(OC)c1 (stereo not shown) [Compound 45]
RESULT: 6.59

QUERY: Can you share its BAF3-FGFR4 pIC50? I mean this compound: COc1cc(OC)c(F)c(N(CC2CCOC2)c2ccc3ncc(-c4cnn(C)c4)nc3n2)c1 (single isomer, unassigned) [Compound 172]
RESULT: 6.33
